# Test system: PC-3 prostate
# experimentSummary: NCI tumour cell line growth inhibition, 48 h
Overview of recorded TGI for various compounds

Observe how each entry below is paired with its result.
>  <compound>
O=Cc1ccc(N2CCN(c3ccc(C=O)cc3)CC2)cc1

>  <TGI>
> 100 µM

$$$$
>  <compound>
Cc1cc2nc(-c3c(F)cccc3Cl)n(Cc3c(F)cccc3Cl)c2cc1C

>  <TGI>
12.6 µM

$$$$
>  <compound>
N#Cc1nc(-c2cccc(-c3nc(C#N)c(N)o3)n2)oc1N

>  <TGI>
> 100 µM

$$$$
>  <compound>
COc1cc2c3c(cc(Cl)nc3c1OC)C(O)(CC(=O)c1ccccc1)C(=O)N2 (stereo unspecified)

>  <TGI>
29.2 µM

$$$$
>  <compound>
COc1ccc2c(c1)CCC/C2=N\NS(=O)(=O)c1c(C)cc(C)cc1C

>  <TGI>
> 100 µM

$$$$

// TGI (PC-3 prostate) for COc1ccc(C(=O)c2cc3c(N)c(C(=O)Nc4cccc(OC)c4)sc3nc2C)cc1 = > 100 µM

// TGI (PC-3 prostate) for Cc1c(O)c(=O)ccn1CCc1ccc(O)cc1 = > 100 µM

// TGI (PC-3 prostate) for CC/C(=C\c1ccc(OC)cc1)c1ccc(OC)cc1 = > 100 µM

// TGI (PC-3 prostate) for COc1cccc2c1cc1c3c(cc4c(c32)OCO4)C(=O)N1 = 24.4 µM

// TGI (PC-3 prostate) for O=[N+]([O-])/C(C(Cl)=C(Cl)Cl)=C(/Nc1ccccc1)Sc1ccccc1 = 34.9 µM

// TGI (PC-3 prostate) for COc1ccccc1NC(=S)N/N=C/c1cccc(C)n1 = > 100 µM

---

# Tested on: HCC-2998 colon
# experimentSummary: NCI tumour cell line growth inhibition, 48 h
Where a SMILES comes first, the peptide text is derived from it. The star is where a group is joined. Trt = c1ccc(C(c2ccccc2)(c2ccccc2)*)cc1; Cbz = O=C(OCc1ccccc1)*
Overview of recorded TGI for various molecules

>  <molecule>
O=C1/C(=C\c2ccccc2)C2OCC=C3CN4CCC56c7ccccc7N1C5C2C3CC46 (stereo not drawn)

>  <experimentalSystem>
HCC-2998 colon

>  <TGI>
> 100 µM

$$$$
>  <molecule>
Nc1cc2c3c(cccc3c1)C(=O)N(c1ccc(OCCN3CCCC3)cc1)C2=O

>  <experimentalSystem>
HCC-2998 colon

>  <TGI>
31.3 µM

$$$$
>  <molecule>
O=C(O)CCc1nc(-c2ccccc2-n2cccc2)no1

>  <experimentalSystem>
HCC-2998 colon

>  <TGI>
> 100 µM

$$$$

// field: TGI; key: CC(=O)NC1C(OCc2ccccc2)OC(CO)C(O)C1OCC(=O)N[C@@H](C)C(=O)N[C@H](CCC(=O)NCCCNc1ccc([N+](=O)[O-])c2[nH]c3ccccc3c(=O)c12)C(N)=O (stereo partly drawn) ; value = > 100 µM

// field: TGI; key: COc1ccc2c(c1)CCC/C2=N\NS(=O)(=O)c1c(C)cc(C)cc1C ; value = > 100 µM

// field: TGI; key: COC(=O)C(CSC(c1ccccc1)(c1ccccc1)c1ccccc1)NC(=O)C(CC(N)=O)NC(=O)OCc1ccccc1 (stereo not drawn) (Cbz-Asn-Cys(Trt)-OMe; configuration not given here) ; value = 4.82 µM

// field: TGI; key: CC(=O)NC(CCCN(Cc1ccccc1)C(=O)N(C)N=O)C(=O)NCc1ccccc1 (stereo not drawn) ; value = > 100 µM

// field: TGI; key: CCCN1CCC=C(c2ccc(Nc3nc(Nc4ccccc4C(N)=O)c4cc[nH]c4n3)c(C)c2)C1 ; value = > 25 µM

// data source = PubChem BioAssay (NCI)
